Ref: BindingDB's records for doi:10.1146/annurev.pa.30.040190.003221

Entries with their measured pKi, system Muscarinic acetylcholine receptor M1 (Rattus norvegicus, UniProt P08482):
// pKi here means minus log10 of the molar concentration (mol/L)

[Q] Form entry - test system: Muscarinic acetylcholine receptor M1 (Rattus norvegicus, UniProt P08482); read-out: pKi; compound: CCN(CC)CC1CCCCN1CC(=O)N1c2ccccc2C(=O)Nc2cccnc21 (configuration not stated)
Sequence (P08482 whole entry): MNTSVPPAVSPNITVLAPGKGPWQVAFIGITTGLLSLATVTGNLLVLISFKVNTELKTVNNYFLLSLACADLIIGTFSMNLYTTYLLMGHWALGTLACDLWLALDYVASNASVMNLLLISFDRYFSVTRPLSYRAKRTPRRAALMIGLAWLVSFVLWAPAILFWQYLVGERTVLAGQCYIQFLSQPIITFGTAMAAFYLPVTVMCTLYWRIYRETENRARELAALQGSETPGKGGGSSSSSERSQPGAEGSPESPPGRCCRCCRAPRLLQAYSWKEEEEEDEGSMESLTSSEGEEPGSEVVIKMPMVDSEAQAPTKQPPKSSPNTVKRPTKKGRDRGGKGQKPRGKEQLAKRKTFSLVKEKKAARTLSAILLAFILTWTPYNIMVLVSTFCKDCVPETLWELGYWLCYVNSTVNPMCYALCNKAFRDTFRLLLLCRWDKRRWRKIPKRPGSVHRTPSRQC
[A] 6.40

Shifting focus to the compound that follows.
[Q] Form entry - test system: Muscarinic acetylcholine receptor M1 (Rattus norvegicus, UniProt P08482); read-out: pKi; compound: C[C@H]1OC(=O)C2C[C@H]3CCCC[C@@H]3[C@@H](/C=C/[C@@H]3CCC[C@H](C)N3C)C21 (some centres not stated)
[A] 7.00
